Parameter pIC50, tested on UniProt P18054, listed per item.
pIC50: −log10 of the molar value.

Solved cases below.
{"Compound": "COc1cccc(CNc2ccc(S(=O)(=O)Nc3nc(-c4ccc(C(F)(F)F)c(F)c4)c(F)s3)nc2)c1O [Compound I-25]", "Target desc": "UniProt P18054", "pIC50": "> 6.60"}
{"Compound": "COc1cccc(CNc2cnc(S(=O)(=O)Nc3nc(-c4ccc(F)c(Cl)c4)c(F)s3)c(-c3ccccc3)c2)c1O [Compound I-42]", "Target desc": "UniProt P18054", "pIC50": "> 6.60"}
{"Compound": "COc1cccc(CNc2cnc(S(=O)(=O)Nc3nc(-c4ccc(F)c(F)c4)cs3)c(C)c2)c1O [Compound I-39]", "Target desc": "UniProt P18054", "pIC50": "> 6.60"}
{"Compound": "COc1cccc(CNc2ccc(S(=O)(=O)Nc3nc(-c4ccc(F)c(Cl)c4)c(F)s3)nc2C)c1O [Compound I-14]", "Target desc": "UniProt P18054", "pIC50": "6.00 to 6.60"}
{"Compound": "COc1cccc(CNc2cnc(S(=O)(=O)Nc3nc(-c4ccc(Cl)c(F)c4)c(F)s3)c(C)c2)c1O [Compound I-23]", "Target desc": "UniProt P18054", "pIC50": "> 6.60"}
{"Compound": "COc1cccc(CNc2cnc(S(=O)(=O)Nc3nc(-c4ccc(F)c(F)c4)c(F)s3)c(C)c2)c1O [Compound I-18]", "Target desc": "UniProt P18054", "pIC50": "> 6.60"}

Turning now to a further record.
Returns the measured pIC50 for the input compound. Input: COc1cccc(CNc2cnc(S(=O)(=O)Nc3nc(-c4ccc(F)c(Cl)c4)c(F)s3)cc2C)c1O [Compound I-15]
< 6.00

----------
pIC50: −log10 of the molar value.
Parameter pIC50, tested on 12-LOX (Homo sapiens (Human)), listed per item.
Sequence (P18054 whole entry): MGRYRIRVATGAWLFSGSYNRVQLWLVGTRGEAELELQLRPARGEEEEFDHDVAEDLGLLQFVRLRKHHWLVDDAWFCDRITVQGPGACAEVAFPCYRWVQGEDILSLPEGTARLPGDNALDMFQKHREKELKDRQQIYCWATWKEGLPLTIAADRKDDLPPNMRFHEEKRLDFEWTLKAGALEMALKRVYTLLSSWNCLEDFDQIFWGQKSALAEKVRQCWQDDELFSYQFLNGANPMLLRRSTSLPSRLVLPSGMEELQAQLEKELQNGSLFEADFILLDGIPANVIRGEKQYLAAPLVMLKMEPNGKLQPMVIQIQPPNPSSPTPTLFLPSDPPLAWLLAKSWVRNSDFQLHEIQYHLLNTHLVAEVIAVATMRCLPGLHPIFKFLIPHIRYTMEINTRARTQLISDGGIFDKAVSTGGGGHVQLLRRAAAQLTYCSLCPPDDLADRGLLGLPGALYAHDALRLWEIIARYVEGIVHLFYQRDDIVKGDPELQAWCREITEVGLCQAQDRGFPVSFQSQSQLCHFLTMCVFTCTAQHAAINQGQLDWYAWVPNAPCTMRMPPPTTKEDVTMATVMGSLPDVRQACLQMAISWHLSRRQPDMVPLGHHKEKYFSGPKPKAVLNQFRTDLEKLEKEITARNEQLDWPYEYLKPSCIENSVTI

Solved cases below.
{"Smiles": "COc1cccc(CN(C)c2ccc(S(=O)(=O)Nc3nc(-c4ccc(F)c(F)c4)c(F)s3)nc2)c1O", "pIC50": "6.00 to 6.60"}
{"Smiles": "COc1cccc(CNc2cnc(S(=O)(=O)Nc3nc(-c4ccc(F)c(Cl)c4)cs3)c(C)c2)c1O", "pIC50": "> 6.60"}
{"Smiles": "COc1cccc(CNc2cnc(S(=O)(=O)Nc3nc(-c4ccc(F)c(Cl)c4)c(F)s3)c(C)c2)c1O", "pIC50": "> 6.60"}

Returns the measured pIC50 for the input compound. Input: [2H]C([2H])([2H])Oc1cccc(CNc2ccc(S(=O)(=O)Nc3nc(-c4ccc(Cl)c(F)c4)c(F)s3)nc2)c1O
> 6.60
